Listed here are compounds together with their documented inhibition.
- target.system: Hexose transporter 1 (Plasmodium falciparum)
- method: ST_JUDE_LEISH: Cytotoxicity at 2uM final concentration against transgenic Leishmania Mexicana promastigotes LmPfHT that are glucose transport deficient and complemented with the Plasmodium falciparum hexose transporter. Activity is measured by DNA content using SYBR green in vitro
- Type: functional
The answer is to be given in %; state only the numeric part.

Use the examples below as a reference point.
compound	inhibition (%)
NCC1CCCN1Cc1cccc(-c2ccc(-c3nc4ccccc4[nH]3)s2)c1 (centres undefined)	8.03
O=C(Nc1ccc2c(c1)CCN(C1CCC1)CC2)c1ccc(-n2ccnc2)cn1	2.97
CC(=O)Nc1ccc(Nc2cc(C)nc(Nc3ccc(NC(C)=O)cc3)n2)cc1	5.08
Cc1ccccc1C1CCN(C2CCC(NC(=O)/C=C/c3cc(F)ccc3F)CC2)CC1 (centres undefined)	2.73
Cc1noc(C)c1-c1cccc(CNCc2cccc(-c3cccc(-c4nc5ccccc5[nH]4)c3)c2)c1	1.29
Clc1cc2c(Nc3ccc(Oc4ccccc4)cc3)ccnc2cc1-c1ccc(CNCCN2CCOCC2)o1	-0.57

Here's the next entry for you.
For `CCC/C=C/c1c(CNCCCNc2cc(=O)c3ccccc3[nH]2)sc(CC)c1Br` , what is its reported inhibition?
1.29
